Test: Pharmacokinetic profiles after p.o., i.p. and i.v. administration
Format: in vivo, Wistar rats
Conditions: Wistar, rat, plasma, iv, 50 mg/kg, i.v. 50 mg/kg, 120 min, n = 6
Measure: concentration at 120 min (ng/mL)
Dear colleague, please return just the value in ng/mL, with no unit written.

Qu. Tell me the measured concentration at 120 min of O=C(/C=C(/Br)C(=O)O)Nc1ccc(O)c(C(=O)O)c1 , please.
Ans. 2200

====

Test: Pharmacokinetic profiles after p.o., i.p. and i.v. administration
Assay type: in vivo, Wistar rats
Settings: Wistar, rat, plasma, po; p.o. 50 mg/kg, rats; read-out: Cmax, maximum plasma concentration
Measure: Cmax (ng/mL)
Write the number in ng/mL without appending the unit.

Qu. Please give the measured Cmax for this compound: O=C(/C=C(/Br)C(=O)O)Nc1ccc(O)c(C(=O)O)c1
Ans. 2800

====

Experiment: Pharmacokinetic profiles after p.o., i.p. and i.v. administration
Assay type: in vivo, Wistar rats
Conditions: Wistar, rat, plasma, ip, 75 mg/kg, plasma, i.p. 75 mg/kg, 540 min, n = 6; read-out: Average Concentration
Measure: concentration at 540 min

Qu. # input molecule: O=C(/C=C(/Br)C(=O)O)Nc1ccc(O)c(C(=O)O)c1 ; wanted: its concentration at 540 min
Ans. 0 ng/mL

====

Assay: Distribution of C1 in tissues
Format: in vivo, Wistar rats
Conditions: male, Wistar, rat, small intestine, po, 75 mg/kg, Small intestine, p.o. 75 mg/kg, individual rats; read-out: Concentration (µg/mL) at 3 h, Rat 1-3
Measure: concentration at 3 h (µg/mL)
Kindly answer with a numeric value in µg/mL, unit omitted.

Qu. Name the recorded concentration at 3 h for O=C(/C=C(/Br)C(=O)O)Nc1ccc(O)c(C(=O)O)c1 [Compound C1] .
Ans. 14.2

Reference source for all entries: paper PMC8617944
